assay: soluble on expression in E. coli; label from the status in PepcDB or PDB records

sequenceInput | soluble on expression in E. coli
MKPKAMIRTMAIMKTADILKAMDITEELAKRMGFLPRDCLFLRLATEEACTNAYEYCQKTRKLPFRIFWKMEARQFMIIVKQRGGCFSVAQTDVVNTGPRGRGLQLITHIVDDVYVKQAGNNVLFCMCKCKK | not soluble
MAKSNSNNSHNEADTLSSLLSSVGSSYDGESDSTFVSTGTTPSSSRRSRLDSFLSTTSSSKSRPRIKSKLPRSSSSGFSGTGSERSISSKRSKIGNTSGNRNKISQSARRRLLQAEIESRRNRSNKSPGSSRKSILKKSPMKKRRSLSRKSLPKKEHIPPVQKFAIIKNPAARNQVRGFVAEYAQDPEFEAFELLVDGIPFVALSLMNAHPDLRGRFKPVPPPTPMKKHTPGINSPRKRPLRRESISSVNSKSVRFTDEGSSFSKRARKSSSGDVDSSIRELGETVSDAMIDTGRQYNDLWKDRAHSVEK | not soluble

Numbers sourced from the DeepSol protein solubility set.
